Data provenance is the supplement of paper PMC9170038.

# maps each entry to its apparent KD of MS2 coat protein
tested on: MS2 coat protein; test: apparent KD of MS2 coat protein; designed switch direction (-1 OFF switch, 1 ON switch): -1; higher = weaker reporter binding; conditions: input ligand: none
measure: apparent KD of MS2 coat protein (µM)

{"columns": ["record sequence", "measure", "value measured"],
 "data": [
  ["GCCUUAUCCGUCAGGAUAUACAGCCGCUCCCUGUUGUAGAAGGGACAUGAGGAUCACCCAUGUACGUACCACCG [alecazam8] (Eterna round: R97, puzzle: Brourd's mod of Exclusion 4)", "apparent KD of MS2 coat protein", 0.0292],
  ["UCAACCAGAGGAUAUGCGCAUAGAUCAGACUUUGUUUCUUAACAUGAGGAUCACCCAUGUAGAAGGCUGUAACC [Ex2 #77] (Eterna round: R97, puzzle: Exclusion 2)", "apparent KD of MS2 coat protein", 0.0198],
  ["CUAAAUCAUGUAGGAUAUGCGUGGCAAAGCUAUGCAGAAGGACAUGAGGAUCACCCAUGUCAUUCCGUCUGCGAACAGACGGGA [Mat - Exclusion NG 1 - Mod of JL - D50] (Eterna round: R96, puzzle: Exclusion NG 1)", "apparent KD of MS2 coat protein", 0.0203],
  ["ACUAGGCGAGGAUAUACAUGCUUAACGCAGGAAAAGCUGCGACAUGAGGAUCACCCAUGUAGAAGGCGCAAAUA [Xege] (Eterna round: R96, puzzle: Exclusion 2)", "apparent KD of MS2 coat protein", 0.02]
]}
